Taken from patent US9499553B2.

Molecular target: human NaPi-IIb (Homo sapiens, UniProt O95436)
Construct: expressed in transfected cells
Assay: Inhibitory effect on 33PO4 uptake into human NaPi-IIb-expressing CHO cells
Format: cell-based
Conditions: read-out: IC50
Field: log10(IC50). Provide a value for each of the compounds that follow.
Scale type: logarithmic (base 10). Underlying IC50 unit: µM.

Item: C[C@]12CCCN1N(Cc1cccc(F)c1F)C(=O)C(C(=O)Nc1cc(F)c(Br)c(F)c1)=C2O | log10(IC50): 0.30

compound COc1cccc(-c2cc(C(F)(F)F)ccc2NC(=O)C2=C(O)[C@@]3(C)CCCN3N(Cc3ccc(C#CCCO)c(F)c3F)C2=O)c1OC , log10(IC50) observed: 1.29

Record CC(C)[C@@H]1C(O)=C(C(=O)Nc2ccc(Cl)cc2-c2ccc(C(F)(F)F)nc2)C(=O)N(Cc2cccc(F)c2F)N1C , field log10(IC50): 0.88

Value of measured log10(IC50) for the entry C[C@]12CCCN1N(Cc1ccc(OCCN3CCOCC3)c(F)c1F)C(=O)C(C(=O)Nc1ccc(C(F)(F)F)nc1-c1cncc(C(F)(F)F)c1)=C2O : 1.08

Query COc1cccc(-c2cc(C(F)(F)F)ccc2NC(=O)C2=C(O)[C@@]3(C)CCCN3N(Cc3ccc(C#CCCCCO)c(F)c3F)C2=O)c1OC yields log10(IC50) of 1.09

Input CSc1ncc(-c2cc(C(F)(F)F)ccc2NC(=O)C2=C(O)[C@@]3(C)CCCN3N(Cc3cccc(F)c3F)C2=O)cn1 . Output log10(IC50): 0.45

Reported log10(IC50) of C[C@]12CCCN1N(Cc1ccccc1F)C(=O)C(C(=O)Nc1ccc(C(F)(F)F)cc1-c1ccc(C(F)(F)F)nc1)=C2O : 0.11

// log10(IC50) lookup, compound = COc1nc(C#N)ncc1-c1cc(C(F)(F)F)ccc1NC(=O)C1=C(O)[C@@]2(C)CCCN2N(Cc2ccc(OCCN3CCOCC3)c(F)c2F)C1=O , result: 1.18

For reference, reported log10(IC50) for CC(C)[C@H]1C(O)=C(C(=O)Nc2cc(F)c(Br)c(F)c2)C(=O)N(Cc2cccc(F)c2F)N1C stands at 0.99

Per the records, this compound ( Cc1c(-c2cc(C(F)(F)F)ccc2NC(=O)C2=C(O)[C@@]3(C)CCCN3N(Cc3cccc(F)c3F)C2=O)ccnc1Cl ) has log10(IC50) equal to 0.85

Notebook: COc1nc(C#N)ncc1-c1cc(C(F)(F)F)ccc1NC(=O)C1=C(O)[C@@]2(C)CCCN2N(Cc2cccc(F)c2F)C1=O , log10(IC50) read as 0.86

For record C[C@]12CCCN1N(Cc1ccc(C#CCN3CCOCC3)c(F)c1F)C(=O)C(C(=O)Nc1ccc(C(F)(F)F)cc1-c1ccc(C(F)(F)F)nc1)=C2O the listed log10(IC50) is 1.21

log10(IC50) in this record for C[C@]12CCCN1N(Cc1cccc(F)c1F)C(=O)C(C(=O)Nc1ccc(C(F)(F)F)cc1-c1ccc(C#N)nc1)=C2O : 0.94

---

Biological target: human NaPi-IIb (Homo sapiens)
Construct: expressed in transfected cells
Assay: Inhibitory effect on 33PO4 uptake into human NaPi-IIb-expressing CHO cells
Format: cell-based
Details: read-out: IC50
Give pIC50 for every item shown.
pIC50 is a log-scale quantity: -log10 of the concentration expressed in molar.

Query C[C@]12CCCN1N(Cc1ccc(C#CCN3CCOCC3=O)c(F)c1F)C(=O)C(C(=O)Nc1ccc(Br)c(F)c1)=C2O yields pIC50 of 4.88

pIC50 reading for C[C@]12CCCN1N(Cc1cccc(OC(F)(F)F)c1)C(=O)C(C(=O)Nc1ccc(C(F)(F)F)cc1-c1cc(C(F)(F)F)ncn1)=C2O : 5.26

Field pIC50 (entry COc1ccc(OC)c(CN2C(=O)C(C(=O)Nc3ccc(C(F)(F)F)cc3-c3ccc(C(F)(F)F)nc3)=C(O)[C@@]3(C)CCCN23)c1 ) reads 5.40

---

Biological target: human NaPi-IIb (Homo sapiens, UniProt O95436)
Construct: expressed in transfected cells
Experiment: Inhibitory effect on 33PO4 uptake into human NaPi-IIb-expressing CHO cells
Format: cell-based
Settings: read-out: IC50
pIC50: −log10 of the molar value.
Outcome label depends on pIC50 relative to 5: at/above gives satisfied, below gives not satisfied.

In: Is reported pIC50 greater than or equal to 5 here: C[C@]12CCCN1N(Cc1cc(F)ccc1F)C(=O)C(C(=O)Nc1ccc(C(F)(F)F)cc1-c1ccc(C(F)(F)F)nc1)=C2O
Out: satisfied

In: Answer whether pIC50 of COc1cccc(-c2cc(C(F)(F)F)ccc2NC(=O)C2=C(O)[C@@]3(C)CCCN3N(Cc3ccc(CCCOCCOCCOCCO)c(F)c3F)C2=O)c1OC is greater than or equal to 5.
Out: not satisfied

In: Please check the record CN(CCO)CCOc1ccc(CN2C(=O)C(C(=O)Nc3ccc(C(F)(F)F)cc3-c3cc(C(F)(F)F)ncn3)=C(O)C3(CCC3)N2C)c(F)c1F and state if its pIC50 is at or above 5.
Out: not satisfied

In: I'd appreciate it if you could say whether C[C@]12CCCN1N(Cc1cccc(Cl)c1F)C(=O)C(C(=O)Nc1ccc(C(F)(F)F)cc1-c1ccc(C(F)(F)F)nc1)=C2O has pIC50 at least equal to 5.
Out: satisfied

In: Determine whether this molecule has pIC50 no lower than 5: C[C@]12CCCN1N(Cc1ccc(F)c(F)c1)C(=O)C(C(=O)Nc1cc(F)c(Br)c(F)c1)=C2O
Out: not satisfied

In: # check: pIC50 of C[C@]12CCCN1N(Cc1ccc(Cl)cc1)C(=O)C(C(=O)Nc1cc(F)c(Br)c(F)c1)=C2O is greater than or equal to 5
Out: not satisfied

In: Is pIC50 at least 5? Consider C[C@]12CCCN1N(Cc1c(F)cc(C#CCN3CCOCC3)cc1F)C(=O)C(C(=O)Nc1ccc(C(F)(F)F)cc1-c1ccc(C(F)(F)F)nc1)=C2O
Out: satisfied

In: Decide: pIC50 of Cc1cccc(CN2C(=O)C(C(=O)Nc3ccc(C(F)(F)F)cc3-c3cc(C(F)(F)F)ncn3)=C(O)[C@@]3(C)CCCN23)c1 >= 5?
Out: satisfied

---

Molecular target: human NaPi-IIb (Homo sapiens, UniProt O95436)
Construct: expressed in transfected cells
Sequence (O95436 1-690): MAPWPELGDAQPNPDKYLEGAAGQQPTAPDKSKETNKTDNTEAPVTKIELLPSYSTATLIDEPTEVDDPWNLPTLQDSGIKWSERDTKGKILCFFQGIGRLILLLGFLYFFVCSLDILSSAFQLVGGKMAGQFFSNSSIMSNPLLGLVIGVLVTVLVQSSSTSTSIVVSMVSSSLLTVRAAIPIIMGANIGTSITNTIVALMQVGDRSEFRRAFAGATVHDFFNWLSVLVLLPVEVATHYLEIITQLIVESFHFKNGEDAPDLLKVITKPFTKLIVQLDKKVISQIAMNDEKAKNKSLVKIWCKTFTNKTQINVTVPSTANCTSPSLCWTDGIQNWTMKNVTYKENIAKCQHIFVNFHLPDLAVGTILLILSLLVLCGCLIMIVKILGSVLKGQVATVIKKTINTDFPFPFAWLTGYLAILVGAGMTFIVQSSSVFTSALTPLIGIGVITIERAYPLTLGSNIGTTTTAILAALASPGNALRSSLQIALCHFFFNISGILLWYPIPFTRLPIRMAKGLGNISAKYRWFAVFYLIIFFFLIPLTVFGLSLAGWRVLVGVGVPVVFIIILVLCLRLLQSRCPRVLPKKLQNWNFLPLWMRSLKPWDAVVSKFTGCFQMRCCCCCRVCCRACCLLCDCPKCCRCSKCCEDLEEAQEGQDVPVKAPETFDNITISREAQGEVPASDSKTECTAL
Experiment: Inhibitory effect on 33PO4 uptake into human NaPi-IIb-expressing CHO cells
Type: cell-based
Settings: read-out: IC50
observable: pIC50
// scale note: pIC50 = -log10(conc_M); give the bare number

For COc1cc(CN2C(=O)C(C(=O)Nc3ccc(C(F)(F)F)cc3-c3ccc(C(F)(F)F)nc3)=C(O)[C@@]3(C)CCCN23)cc(OC)c1 [Example 202] the compound record lists pIC50 as 5.21

Lab note: measured pIC50 of CN1[C@@H](C(C)(C)C)C(O)=C(C(=O)Nc2ccc(C(F)(F)F)cc2-c2cc(C(F)(F)F)ncn2)C(=O)N1Cc1ccc(OCCN2CCOCC2)c(F)c1F [Example 264] was 4.71

pIC50 reading for CN1N(Cc2ccc(OCCN3CCOCC3)c(F)c2F)C(=O)C(C(=O)Nc2ccc(C(F)(F)F)cc2-c2cc(C(F)(F)F)ncn2)=C(O)C1(C)C [Example 313] : 4.74

---

Record form. Attribute: pIC50. Fill in for each entry.
Target: human NaPi-IIb (Homo sapiens, UniProt O95436)
Construct: expressed in transfected cells
Test: Inhibitory effect on 33PO4 uptake into human NaPi-IIb-expressing CHO cells
Format: cell-based
Conditions: read-out: IC50
Protocol: Test Example 2: Inhibitory Effect on PO4 Uptake into Human NaPi-IIb-Expressing Cell CHO cells were transfected with human NaPi-IIb expression plasmids, and a stably human NaPi-IIb-expressing cell line was obtained using G418. The human NaPi-IIb-expressing cells were inoculated to a 96-well plate and incubated overnight in a CO2 incubator. […] After washing with ice-cold buffer A, a liquid scintillator was added to each reaction mixture, and the amount of ^33PO4 uptake was measured using TopCount.
pIC50 here is simply -log10 of the concentration when that concentration is written in mol/L.

Per the records, this molecule ( C[C@]12CCCN1N(Cc1ccc(OCCN3CCOCC3)c(F)c1F)C(=O)C(C(=O)Nc1ccc(Cl)cc1-c1ccc(C(F)(F)F)nc1)=C2O ) has pIC50 equal to 4.96

Recorded pIC50 (molecule C[C@]12CCCN1N(Cc1cc(F)c(F)c(F)c1)C(=O)C(C(=O)Nc1cc(F)c(Br)c(F)c1)=C2O ): 5.15

Sample C[C@H]1COC[C@H](C)N1CCOc1ccc(CN2C(=O)C(C(=O)Nc3ccc(C(F)(F)F)cc3-c3cc(C(F)(F)F)ncn3)=C(O)C3(CCC3)N2C)c(F)c1F ; pIC50 observed: 4.68

Entry C[C@]12CCCN1N(Cc1ccc(F)cc1)C(=O)C(C(=O)Nc1ccc(C(F)(F)F)cc1-c1ccc(C(F)(F)F)nc1)=C2O , pIC50 reported as 5.74

Query CN1[C@@H](C(C)(C)C)C(O)=C(C(=O)Nc2ccc(Br)c(C(F)(F)F)c2)C(=O)N1Cc1cccc(F)c1F yields pIC50 of 5.13

// field: pIC50; key: CN1[C@@H](C(C)(C)C)C(O)=C(C(=O)Nc2ccc(Br)c(C(F)(F)F)n2)C(=O)N1Cc1cccc(F)c1F ; value = 5.11

pIC50 reading for COC[C@@H]1CCCN1CCOc1ccc(CN2C(=O)C(C(=O)Nc3ccc(C(F)(F)F)cc3-c3cc(C(F)(F)F)ncn3)=C(O)C3(CCC3)N2C)c(F)c1F : 5.11

CN1[C@@H](C(C)(C)C)C(O)=C(C(=O)Nc2ccc(C(F)(F)F)cc2C(F)(F)F)C(=O)N1Cc1ccc(OCCN2CCOCC2)c(F)c1F has a reported pIC50 of 4.75

Noted for C[C@]12CCCN1N(Cc1cccc(F)c1F)C(=O)C(C(=O)Nc1ccc(C(F)(F)F)cc1-c1cc(C#N)ccn1)=C2O : its pIC50 reads 4.89

The measured pIC50 associated with C[C@]12CCCN1N(Cc1cc(F)cc(F)c1)C(=O)C(C(=O)Nc1ccc(C(F)(F)F)cc1-c1ccc(C(F)(F)F)nc1)=C2O reads 5.66

Record C[C@]12CCCN1N(Cc1cccc(F)c1F)C(=O)C(C(=O)Nc1ccc(C(F)(F)F)cc1-c1cc(C#N)ncn1)=C2O . Reported pIC50: 5.17

Item: CN1N(Cc2cccc(F)c2F)C(=O)C(C(=O)Nc2ccc(C(F)(F)F)cc2-c2ncnc(C#N)c2Cl)=C(O)C1(C)C | pIC50: 5.20

Summary for this molecule, C[C@]12CCCN1N(Cc1ccc(Br)cc1F)C(=O)C(C(=O)Nc1cc(F)c(Br)c(F)c1)=C2O : pIC50 is 4.98
